Every entry's value here was drawn from PubChem BioAssay (NCI).

# System: COLO 205 colon
# Protocol Summary: NCI-60 one-dose screen, 48 h
# Condition Set: 10 µM unless noted
# Procedure: Cells are grown in 96 well plates and exposed to the test compound for 48 hours. Compounds are tested at a single concentration, which is 10^-5 M for most compounds. The reported endpoint is percent growth (GI% or GIPRCNT), where numbers from 0 - 100% represent growth inhibition, and numbers from -100% - 0 represent cell death. For example, a value of 40 represents 60% growth inhibition. A value of 0 means no net growth occurred over the course of the experiment. […]
This is part of a sample that, as a whole, favours compounds with a hit. Of some 83,000 tested, about 20% had one in any assay. Active and inactive are the calls of the source. The calls were made as follows: active = growth percent below 10; inactive = the rest.
Classes used: YES (active), NO (inactive)

{"columns": ["Compound", "Target Of Assay", "Label"],
 "data": [
  ["COc1cc(OC)c(NC(=O)c2cc3ccccc3cc2O)cc1Cl", "COLO 205 colon", "NO"],
  ["Nc1c(C(=O)Nc2ccncc2)sc2nc3c(cc12)C(O)CCC3 (stereo unspecified)", "COLO 205 colon", "NO"],
  ["O=C1c2ccccc2-c2c1c1c(=O)[nH]c3ccccc3c1n2Cc1ccccc1", "COLO 205 colon", "NO"],
  ["Cc1ccc2c(n1)C(=O)C(Br)=C(C1CCCC1)C2=O", "COLO 205 colon", "NO"],
  ["COC(=O)[C@]1(C)CCC[C@]2(C)[C@H]3C[C@H]4C(C(C)C)=C[C@]3(CC[C@H]21)[C@@H]1C(=O)CC[C@H](OCCC#N)[C@@H]14", "COLO 205 colon", "NO"],
  ["CCC(C(=O)[C@@H](C)[C@@H](O)[C@H](C)[C@@H]1O[C@@H]([C@@H](CC)C(=O)ONC(=O)c2ccccc2)CC[C@@H]1C)[C@H]1O[C@]2(C=CC(=O)[C@]3(CC[C@@](C)([C@H]4CC[C@](O)(CC)[C@H](C)O4)O3)O2)[C@H](C)C[C@@H]1C (stereo partly specified)", "COLO 205 colon", "YES"],
  ["O=C(c1ccccc1)c1ccc(C2CCCCC2)cc1", "COLO 205 colon", "NO"],
  ["COc1cc(C2c3cc(OC(C)=O)c(OC)cc3CC3C(=O)OCC32)ccc1OC(C)=O (stereo unspecified)", "COLO 205 colon", "NO"],
  ["COc1ccc(/C=C/C(=O)c2ccc(Nc3ccnc4cc(Cl)ccc34)cc2)cc1", "COLO 205 colon", "NO"],
  ["Cn1cc(-c2nonc2-c2cn(C)c3ccccc23)c2ccccc21", "COLO 205 colon", "YES"],
  ["Cc1ccc(C)n1-c1ccccc1-n1c(C)ccc1C", "COLO 205 colon", "NO"],
  ["COCCn1cc(-c2nc(-c3cc4cccnc4[nH]3)cs2)c2cc(OC)ccc21", "COLO 205 colon", "NO"],
  ["COc1ccccc1N1CCCCC1", "COLO 205 colon", "NO"],
  ["CN(C)CC1CCC(CN(C)C)C1=O (stereo unspecified)", "COLO 205 colon", "NO"],
  ["COc1cccc(CNc2ccc3ncnc(Nc4ccc(F)c(Cl)c4)c3c2)c1", "COLO 205 colon", "NO"],
  ["CCCc1c(OC(=O)c2ccccc2)nc2[nH]c(=O)sc2c1C", "COLO 205 colon", "NO"],
  ["COc1ccc(F)cc1/C=C/C(=O)/C=C(/C=C/c1cc(F)ccc1OC)OB(F)F", "COLO 205 colon", "NO"],
  ["CN1C(=O)/C(=C\\c2nc([P+](c3ccccc3)(c3ccccc3)c3ccccc3)c(N3CCOCC3)o2)SC1=S", "COLO 205 colon", "NO"],
  ["Nc1[nH]n2cc(-c3ccccc3)nc2c1N=Nc1ccc(S(N)(=O)=O)cc1", "COLO 205 colon", "NO"],
  ["CCC(=O)Oc1ccc(-c2ccccc2)cc1Br", "COLO 205 colon", "NO"],
  ["COc1ccc(/C=C(\\C#N)n2nnc3cc(Cl)ccc32)cc1", "COLO 205 colon", "YES"],
  ["C=CCn1c(SCC(=O)Nc2ccc(C(=O)/C=C/c3ccc(Cl)cc3)cc2)nnc1-c1ccc(Br)cc1", "COLO 205 colon", "NO"],
  ["COc1cc(/C=C2/C=C(c3ccccc3)N(CCc3ccc(S(N)(=O)=O)cc3)C2=O)cc(OC)c1OC", "COLO 205 colon", "NO"],
  ["COc1ccc2c(c1)CC[C@H](O)/C2=C/c1cc(OC)c(OC)c(OC)c1", "COLO 205 colon", "YES"],
  ["COc1cc2ncnc(Nc3ccc(F)c(Cl)c3)c2cc1OCC(=O)N1CCN(c2ccccc2)CC1", "COLO 205 colon", "NO"],
  ["COc1ccc(NC(=O)c2sc3nc(C)c(C(=O)/C=C/c4ccccc4)cc3c2N)cc1", "COLO 205 colon", "NO"]
]}
